Below, each entry is listed alongside its reported IC50.
- SYSTEM: recombinant full-length TDP1 (Homo sapiens, UniProt Q9NUW8)
- MEASUREMENT NOTES: gel-based TDP1 fluorescence assay in vitro (wild-type TDP1)
EXPERIMENTAL ENDPOINT: IC50 (mM)

>>> recorded_measurement("O=C(O)c1c[nH]c2c(S(=O)(=O)O)cccc2c1=O")
4.61
>>> recorded_measurement("O=C(O)c1c[nH]c2c(-c3ccccc3)cccc2c1=O")
5.17

----------
- SYSTEM: TDP1^Y204F (Homo sapiens, UniProt Q9NUW8, Y204F)
- Construct: was incubated for 15 min. with recombinant full-length TDP1 or TDP1^Y204F (40 pM)
- Sequence (Q9NUW8 whole entry Y204F): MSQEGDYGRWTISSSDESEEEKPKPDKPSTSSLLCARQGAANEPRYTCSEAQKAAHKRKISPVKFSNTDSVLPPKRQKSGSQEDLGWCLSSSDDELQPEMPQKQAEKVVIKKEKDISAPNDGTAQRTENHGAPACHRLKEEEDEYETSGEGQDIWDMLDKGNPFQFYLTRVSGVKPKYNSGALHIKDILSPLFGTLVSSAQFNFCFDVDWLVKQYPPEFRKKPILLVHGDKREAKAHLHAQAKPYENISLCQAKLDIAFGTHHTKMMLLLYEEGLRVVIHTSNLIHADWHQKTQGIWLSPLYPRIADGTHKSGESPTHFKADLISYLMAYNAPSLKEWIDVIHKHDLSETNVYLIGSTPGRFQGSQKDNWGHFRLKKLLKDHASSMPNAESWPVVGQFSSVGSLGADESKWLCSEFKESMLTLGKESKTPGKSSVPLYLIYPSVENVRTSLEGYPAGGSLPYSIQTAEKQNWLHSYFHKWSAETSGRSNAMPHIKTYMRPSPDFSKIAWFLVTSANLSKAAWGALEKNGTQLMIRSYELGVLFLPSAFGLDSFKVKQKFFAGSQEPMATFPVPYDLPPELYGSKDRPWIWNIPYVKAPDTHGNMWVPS
- MEASUREMENT NOTES: gel-based TDP1 fluorescence assay in vitro (mutant TDP1 Y204F)
pIC50: −log10 of the molar value.
EXPERIMENTAL ENDPOINT: pIC50

>>> recorded_measurement("O=C(NCCc1ccccc1)c1ccc(-c2cccc3c(=O)c(C(=O)O)c[nH]c23)c(OS(=O)(=O)F)c1")
2.33
